assay: in vivo; conditions: rhesus monkey, in vivo, topical or ocular
Where a name gives a salt, the structure may show the parent alone.
assay endpoint: concentration at 7 h (ng/mL)
Response body: numeric value in ng/mL, unit text excluded.

Task item: For CCN(CC)CCNC(=O)c1cc(Cl)c(N)cc1OC [metoclopramide.HCl] , what is its reported concentration at 7 h?
Reply: 93

###

assay: in vivo; details: rhesus monkey, plasma, topical or ocular, 200 mg; 1 hour after application; procedure of Example 7 (25% C12 OH in 2:1 MP/1,2-propanediol, 49 cm^2, upper back, occluded); read-out: Propranolol plasma level
assay endpoint: concentration at 1 h (ng/mL)
Respond numerically; units are ng/mL and should not be typed.

Task item: Quick one: concentration at 1 h of CC(C)NCC(O)COc1cccc2ccccc12 (stereo not shown) [propranolol] ?
Reply: 30

###

test: in vivo; settings: rhesus monkey, in vivo, topical or ocular
Where a name gives a salt, the structure may show the parent alone.
assay endpoint: concentration at 1 h (ng/mL)
Lab book: enter the figure in ng/mL, no units written.

Task item: GET /values?readout=concentration at 1 h&item= CCN(CC)CCNC(=O)c1cc(Cl)c(N)cc1OC [metoclopramide.HCl]
Reply: 75

###

Assay: in vivo
Conditions: rhesus monkey, in vivo, topical or ocular
Protocol: Male rhesus monkeys weighting 10-14 Kg can be used as the subject. An appropriate area of the monkey's chest is shaved 24 hours before drug application. Drug formulations comprising the PAEC are applied to a certain area of the chest. […] Blood samples are taken at appropriate intervals after the application. The heparinized blood is centrifuged, and the plasma removed and stored at -20° C. until analyzed. […] The plasma level of Indomethacine was analyzed by conventional HPLC. […]
Where a name gives a salt, the structure may show the parent alone.
assay endpoint: concentration at 5 h (µg/mL)
Dear colleague, please return just the value in µg/mL, with no unit written.

Task item: Record request: concentration at 5 h value, item CCN(CC)CCNC(=O)c1cc(Cl)c(N)cc1OC [metoclopramide.HCl]
Reply: 0.121

###

assay: in vivo; conditions: rhesus monkey, in vivo, topical or ocular; 1 hour after application; 200 mg in 1 ml 25% C12 OH in 2:1 MP/1,2-propanediol; 49 cm^2 cloth, upper back, occluded; read-out: Indomethacin plasma level
assay endpoint: concentration at 1 h (ng/mL)
// note: answer is a bare numeric in ng/mL

Task item: Could you share which concentration at 1 h value was measured for COc1ccc2c(c1)c(CC(=O)O)c(C)n2C(=O)c1ccc(Cl)cc1 [Indomethacin] ?
Reply: 619

###

assay: in vivo; conditions: rhesus monkey, plasma, topical or ocular, 200 mg; 3 hours after application; procedure of Example 7 (25% C12 OH in 2:1 MP/1,2-propanediol, 49 cm^2, upper back, occluded); read-out: Propranolol plasma level
assay endpoint: concentration at 3 h
Write the quantity with the unit trailing the number.

Task item: Consider the compound shown here: CC(C)NCC(O)COc1cccc2ccccc12 (stereo not shown) What is its recorded concentration at 3 h?
Reply: 115 ng/mL

###

experiment: in vivo; conditions: rhesus monkey, in vivo, topical or ocular; 5 hours after application; 200 mg in 1 ml 25% C12 OH in 2:1 MP/1,2-propanediol; 49 cm^2 cloth, upper back, occluded; read-out: Indomethacin plasma level
assay endpoint: concentration at 5 h (ng/mL)
Return type: number; implicit unit ng/mL.

Task item: Report concentration at 5 h for `COc1ccc2c(c1)c(CC(=O)O)c(C)n2C(=O)c1ccc(Cl)cc1` please.
Reply: 388

###

experiment: in vivo; settings: rhesus monkey, in vivo, topical or ocular
Structures can show the parent of a compound that is named as a salt.
assay endpoint: concentration at 3 h (ng/mL)
Entry rule: numbers only, all in ng/mL.

Task item: Returns the measured concentration at 3 h for the input molecule. Input: CCN(CC)CCNC(=O)c1cc(Cl)c(N)cc1OC [metoclopramide.HCl]
Reply: 178

###

assay: in vivo; conditions: rhesus monkey, plasma, topical or ocular, 200 mg; 5 hours after application; procedure of Example 7 (25% C12 OH in 2:1 MP/1,2-propanediol, 49 cm^2, upper back, occluded); read-out: Propranolol plasma level
assay endpoint: concentration at 5 h (ng/mL)
Please reply with the bare figure in ng/mL and do not write the unit itself.

Task item: # get_value(readout='concentration at 5 h', item= CC(C)NCC(O)COc1cccc2ccccc12 (stereo not shown) [propranolol] )
Reply: 130

Cited source: patent US5128376A
